tested.target: KRas G12S (Homo sapiens, UniProt P01116, G12S)
Sequence (P01116 1-169 isoform P01116-2 G12S): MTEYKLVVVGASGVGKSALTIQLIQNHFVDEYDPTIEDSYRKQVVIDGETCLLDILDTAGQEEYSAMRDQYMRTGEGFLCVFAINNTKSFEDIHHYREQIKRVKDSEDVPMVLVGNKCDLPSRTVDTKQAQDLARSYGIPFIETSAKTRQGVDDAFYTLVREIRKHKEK
Format: binding
recorded.conditions: TR-FRET displacement, read-out: Binding to KRas (IC50 nM) G12S
reported.endpoint: IC50 (nM)

See these solved cases before continuing.
CCc1cccc2cccc(N3CCc4c(nc(OCC5(CN(C)C)CC5)nc4N4CC(CO)OC(C(F)(F)F)C4)C3)c12 (stereo not drawn) ... 3750
CCc1cccc2cccc(N3CCc4c(nc(OCC5(CN(C)C)CC5)nc4NCc4nnnn4C4CCC4)C3)c12 ... 4920

A: CCc1cccc2cccc(N3CCc4c(nc(OCC5(CN(C)C)CC5)nc4N4Cc5cn[nH]c5CC(C)C4)C3)c12 (stereo not drawn)
B: Oc1cc(Cl)c(C2CC2)c(N2CCc3c(nc(OCC45CCCN4CCC5)nc3N3CC4CC(O)C(C4)C3)C2)c1 (stereo not drawn)
C: CCc1c(F)ccc2cccc(N3CCc4c(nc(OC[C@@]56CCCN5C[C@H](F)C6)nc4N4CCCn5nc(C(=O)N(C)C)cc5C4)C3)c12
D: CCc1cccc2cccc(N3CCc4c(nc(OCC5(CN(C)C)CC5)nc4NCc4cnc(C)nc4N)C3)c12
Inquiry: Hi! Can you put these in order of IC50, lowest number first? Give the labels in the order requested.
Reply text: C, B, A, D
(C: 5 nM, B: 42 nM, A: 9330 nM, D: 13600 nM)

* * *

Tested on: MKN1 cells
protocol.notes: Inhibition of KRas-mediated phosphorylation of ERK (Cisbio HTRF pERK), MKN1 cells
Type: cell-based
recorded.conditions: Homo sapiens, MKN-1, 3 hour compound incubation, Cisbio pERK HTRF
reported.endpoint: IC50 (nM)

See these solved cases before continuing.
CCc1c(F)ccc2cc(O)cc(N3CCc4c(nc(OC[C@@]56CCCN5C[C@H](F)C6)nc4N4CCCn5nc(C(=O)NC)c(Cl)c5C4)C3)c12 [Example 388] ... 8.1
CCc1c(F)ccc2cc(O)cc(N3CCc4c(nc(OCC5(CN(C)C)CC5)nc4N4CCCC(n5ccc(C)n5)C4)C3)c12 (centres unmarked) [Example 600] ... 1120
CCc1c(F)ccc2cc(O)cc(N3CCc4c(nc(OC[C@@]56CCCN5C[C@H](F)C6)nc4N4CCCn5nc6c(c5C4)CCNC6=O)C3)c12 [Example 408] ... 21.7
CCc1c(F)ccc2cc(O)cc(N3CCc4c(nc(OC[C@@]56CCCN5C[C@H](F)C6)nc4N4CCCn5nc(C(=O)N6CC[C@@H]7CC[C@H]6C7)cc5C4)C3)c12 [Example 338] ... 9.6
CCc1c(F)ccc2cc(O)cc(N3CCc4c(nc(OC[C@@]56CCCN5C[C@H](F)C6)nc4N4CCCn5nc6c(c5C4)CCCNC6=O)C3)c12 [Example 415] ... 16
CCc1c(F)ccc2cc(O)cc(N3CCc4c(nc(OC[C@@]56CCCN5C[C@H](F)C6)nc4N4CCCCn5nc(C(=O)N(C)C)c(Cl)c5C4)C3)c12 [Example 589] ... 2.5
CCc1c(F)ccc2cc(O)cc(N3CCc4c(nc(OC[C@@]56CCCN5C[C@H](F)C6)nc4N4CCCn5nc(C(=O)N6[C@@H]7CNC[C@H]6C7)cc5C4)C3)c12 [Example 499] ... 186

a: CCc1c(C(=O)N(C)C)nn2c1CN(c1nc(OC[C@@]34CCCN3C[C@H](F)C4)nc3c1CCN(c1cc(O)cc4ccc(F)c(CC)c14)C3)CCC2 [Example 372]
b: CCc1c(F)ccc2cc(O)cc(N3CCc4c(nc(OC[C@@]56CCCN5C[C@H](F)C6)nc4N4CCCn5nc(NC)c(OC)c5C4)C3)c12 [Example 393]
c: CCc1c(F)ccc2cc(O)cc(N3CCc4c(nc(OC[C@@]56CCCN5C[C@H](F)C6)nc4N4CCCc5n[nH]cc5C4)C3)c12 [Example 361]
d: O=S1(=O)CCC2(CCCN(c3nc(OC[C@@]45CCCN4C[C@H](F)C5)nc4c3CCN(c3cc(O)cc5cccc(Cl)c35)C4)C2)N1 (some centres unmarked) [Example 513]
Inquiry: Arrange these molecules by their IC50, starting with the largest number. Give the labels in the order requested.
Reply text: c, b, d, a
(c: 401 nM, b: 58.5 nM, d: 6 nM, a: 3.1 nM)

* * *

IC50 values, listed per item
tested.target: UniProtKB P01116
protocol.notes: KRas binding assay (TR-FRET displacement), KRas WT
recorded.conditions: TR-FRET displacement

C=C1CN2CCCC2(COc2nc3c(c(N4CCCC5(CCO5)C4)n2)CCN(c2cc(O)cc4ccc(F)c(CC)c24)C3)C1 (centres unmarked) ... < 2 nM
CCc1c(F)ccc2cc(O)cc(N3CCc4c(nc(OCC56CCCN5C/C(=C\F)C6)nc4N4CCCn5nc(C(=O)N(C)C)cc5C4)C3)c12 (centres unmarked) ... < 2 nM
CCc1c(F)ccc2cc(O)cc(N3CCc4c(nc(OCC56CCCN5C/C(=C\F)C6)nc4N4CCC[C@@](C)(O)C4)C3)c12 (some centres unmarked) ... < 2 nM
CCc1cccc2cccc(N3CCc4c(nc(OCC5(CN(C)C)CC5)nc4NC4CN(c5nncs5)C4)C3)c12 ... 3490 nM

Inquiry: Determine its reported IC50: C[C@@H]1C[C@@H]1c1c(Cl)cc2[nH]ncc2c1N1CCc2c(nc(OCC34CCCN3CCC4)nc2N2CCC[C@]3(C2)NC(=O)NC3=O)C1
Reply text: < 2 nM

* * *

IC50 values, listed per item
tested.target: KRas G12V (Homo sapiens, UniProt P01116, G12V)
Sequence (P01116 1-169 isoform P01116-2 G12V): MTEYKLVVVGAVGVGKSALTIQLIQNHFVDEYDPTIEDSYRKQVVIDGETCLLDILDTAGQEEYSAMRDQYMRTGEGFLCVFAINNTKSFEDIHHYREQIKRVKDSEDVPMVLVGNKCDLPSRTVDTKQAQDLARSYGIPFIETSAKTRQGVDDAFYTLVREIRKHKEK
protocol.notes: biochemical
recorded.conditions: Binding to KRas (IC50 nM) G12V, TR-FRET displacement, KRas G12V

C[C@@H]1C[C@@H]1c1c(Cl)cc(O)cc1N1CCc2c(nc(OC[C@@]34CCCN3C[C@H](F)C4)nc2N2CCC[C@]3(C2)NC(=O)NC3=O)C1 (stereo in doubt) [Example 653] ... < 2 nM
CCc1c(F)ccc2cc(O)cc(N3CCc4c(nc(OC[C@@]56CCCN5C[C@H](F)C6)nc4N4CCCn5nc(C(=O)N6CC7CCC(C7)C6)cc5C4)C3)c12 [Example 302] ... < 2 nM

Inquiry: Determine its reported IC50: CCNc1cc2n(n1)CCCN(c1nc(OC[C@@]34CCCN3C[C@H](F)C4)nc3c1CCN(c1cc(O)cc4ccc(F)c(CC)c14)C3)C2 [Example 412]
Reply text: < 2 nM

Inquiry: Determine its reported IC50: C=C1CN2CCCC2(COc2nc3c(c(N4CCCC5(CCO5)C4)n2)CCN(c2cc(O)cc4ccc(F)c(CC)c24)C3)C1 (centres unmarked) [Example 713]
Reply text: < 2 nM

Inquiry: Determine its reported IC50: O=C1NCC2(CCCN(c3nc(OCC45CCCN4CCC5)nc4c3CCN(c3cc(O)cc(Cl)c3C3CC3)C4)C2)N1 (centres unmarked) [Example 442]
Reply text: 3 nM

Inquiry: Determine its reported IC50: CCc1c(F)ccc2cc(O)cc(N3CCc4c(nc(OC[C@@]56CCCN5C[C@H](F)C6)nc4N4CCCn5nc6c(c5C4)CCNC6=O)C3)c12 [Example 408]
Reply text: < 2 nM

Inquiry: Determine its reported IC50: C[C@@H]1C[C@@H]1c1c(Cl)cc(O)cc1N1CCc2c(nc(OC[C@@]34CCCN3C[C@H](F)C4)nc2N2CCC[C@@](C)(O)C2)C1 (stereo in doubt) [Example 655]
Reply text: 4 nM

Inquiry: Determine its reported IC50: CCc1c(F)ccc2cc(O)cc(N3CCc4c(nc(OC[C@@]56CCCN5C[C@H](F)C6)nc4N4CCCn5nc(C(=O)N6CC7CNC(C7)C6)cc5C4)C3)c12 (some centres unmarked) [Example 234]
Reply text: < 2 nM

Inquiry: Determine its reported IC50: CCc1c(F)ccc2cc(O)cc(N3CCc4c(nc(OC[C@@]56CCCN5C[C@H](F)C6)nc4N4CCCn5nc(CNS(=O)(=O)N(C)C)cc5C4)C3)c12 [Example 336]
Reply text: 8 nM

Inquiry: Determine its reported IC50: CCc1c(F)ccc2cc(O)cc(N3CCc4c(nc(OC[C@@]56CCCN5C[C@H](F)C6)nc4N4CCCn5nc(C(=O)N(C)CCOCCOC)cc5C4)C3)c12 [Example 373]
Reply text: < 2 nM

Inquiry: Determine its reported IC50: CN1CCC[C@H]1COc1nc2c(c(N3CCCC4(CC(O)C4)C3)n1)CCN(c1cccc3cccc(Cl)c13)C2 (some centres unmarked) [Example 484]
Reply text: 1180 nM

Inquiry: Determine its reported IC50: CN(C)C(=O)c1cc2n(n1)CCCN(c1nc(OCC34CCCN3CCC4)nc3c1CCN(c1cc(O)cc(Cl)c1C1CC1)C3)C2 [Example 437]
Reply text: < 2 nM

Inquiry: Determine its reported IC50: CCc1c(F)ccc2cc(O)cc(N3CCc4c(nc(OC[C@@]56CCCN5C[C@H](F)C6)nc4N4CCCn5nc(C(=O)N(C)C(C)C)cc5C4)C3)c12 [Example 381]
Reply text: < 2 nM

Inquiry: Determine its reported IC50: CCc1c(C(=O)N(C)C)nn2c1CN(c1nc(OC[C@@]34CCCN3C[C@H](F)C4)nc3c1CCN(c1cc(O)cc4ccc(F)c(CC)c14)C3)CCC2 [Example 372]
Reply text: < 2 nM
